RECORDED_ENDPOINT: melting point

> print(dat)
                                   molecule  recorded.endpoint         result
1  COC(=O)C1CCN(C2Cc3ccc(NC(=O)c4cccc(C)c4-c4ccc(C(F)(F)F)cc4)cc3C2)CC1 (stereo not shown) [Example 9]      melting point  191 to 195 °C
2  COC(=O)N1CCN(C2Cc3ccc(NC(=O)c4cccc(C)c4-c4ccc(F)cc4)cc3C2)CC1 (stereo not shown) [Example 37]      melting point  141 to 142 °C
3  CCCC(=O)N1CCN(C2Cc3ccc(NC(=O)c4cccc(C)c4-c4ccc(C(F)(F)F)cc4)cc3C2)CC1 (stereo not shown) [Example 21]      melting point  173 to 176 °C
4  COC(=O)N1CCN(C2Cc3ccc(NC(=O)c4cccc(C(F)(F)F)c4-c4ccc(C(F)(F)F)cc4)cc3C2)CC1 (stereo not shown) [Example 5]      melting point  210 to 212 °C
